System: Pichia kudriavzevii
protocol details: Antifungal activity against Pichia kudriavzevii NRRL Y-7179 after 24 hr by NCCLS broth microdilution method
Format: functional
test parameters: NRRL Y-7179, 24 h
measured property: MIC (µg/mL)

compound | target desc | measured property | unit tag | test result
CC(=O)N1CCN(c2ccc(OCC3COC(Cn4ccnc4)(c4ccc(Cl)cc4Cl)O3)cc2)CC1 (centres undefined) | Pichia kudriavzevii | MIC | µg/mL | 62

A. CC(=O)N1N=C(c2ccc(F)cc2)OC1/C=C/c1ccc(N(C)C)cc1 (centres undefined)
B. CC(=O)N1N=C(c2ccc(F)cc2)OC1c1ccccc1 (centres undefined)
C. CN(C)c1ccc(/C=C/C=N/NC(=O)c2ccc(F)cc2)cc1
Input line: Please give the order of these compounds when sorted by MIC, largest value leading. List the labels according to the requested ordering.
Output line: B, C, A

====

Tested on: Candida albicans
protocol details: Antifungal activity against Candida albicans ATCC 90028 after 24 hr by NCCLS broth microdilution method
Format: functional
test parameters: ATCC 90028, 24 h
measured property: MIC (µg/mL)

compound | target desc | unit tag | MIC
O=C(N/N=C/c1ccc(F)cc1)c1ccc(F)cc1 | Candida albicans | µg/mL | 500
COc1ccc(C2OC(c3ccc(F)cc3)=NN2C(C)=O)cc1 (stereo unspecified) | Candida albicans | µg/mL | 500

P. O=C(N/N=C/c1ccc(Br)s1)c1ccc(F)cc1
Q. O=C(N/N=C/c1ccc(Br)cc1)c1ccc(F)cc1
Input line: Between P and Q , which one shows the larger MIC value? Give the chosen item's label as your response.
Output line: Q

====

Test system: HL-60
protocol details: Antioxidant activity in PMA-stimulated Homo sapiens (human) HL60 cells assessed as inhibition of intracellular ROS generation up to 25 ug/ml incubated for 30 min prior to PMA stimulation measured after 30 min by DCFH-DA assay relative to vehicle-treated control
Assay type: functional, cell-based
Calls of active or inactive are those of the source. No cut-off for these calls is given here.
measured property: inhibition

Before answering, review these 6 worked examples.
compound | inhibition
CC(=O)N1N=C(c2ccc(F)cc2)OC1c1ccc(F)cc1 (stereo not drawn) | inactive
CC(=O)N1N=C(c2ccc(F)cc2)OC1/C=C/c1ccc(N(C)C)cc1 (stereo not drawn) | inactive
O=C(N/N=C/c1ccc(Br)cc1)c1ccc(F)cc1 | inactive
O=C(N/N=C/c1ccccc1)c1ccc(F)cc1 | inactive
COc1ccc(C2OC(c3ccc(F)cc3)=NN2C(C)=O)cc1 (stereo not drawn) | inactive
CC(=O)N1N=C(c2ccc(F)cc2)OC1c1ccc(Br)s1 (stereo not drawn) | inactive

Input line: Annotate the compound CN(C)c1ccc(/C=C/C=N/NC(=O)c2ccc(F)cc2)cc1 with its measured inhibition.
Output line: inactive

Input line: Annotate the compound CC(=O)N1N=C(c2ccc(F)cc2)OC1c1ccccc1 (stereo not drawn) with its measured inhibition.
Output line: inactive

Input line: Annotate the compound O=C(N/N=C/c1ccc(Br)s1)c1ccc(F)cc1 with its measured inhibition.
Output line: inactive

Input line: Annotate the compound CC(=O)N1N=C(c2ccc(F)cc2)OC1c1ccc(N(C)C)cc1 (stereo not drawn) with its measured inhibition.
Output line: inactive

Input line: Annotate the compound CC(=O)N1N=C(c2ccc(F)cc2)OC1c1ccc(Br)cc1 (stereo not drawn) with its measured inhibition.
Output line: inactive

Input line: Annotate the compound CC(=O)N1N=C(c2ccc(F)cc2)OC1c1ccc(O)cc1 (stereo not drawn) with its measured inhibition.
Output line: inactive

Input line: Annotate the compound O=C(N/N=C/c1ccc(O)cc1)c1ccc(F)cc1 with its measured inhibition.
Output line: inactive
